Target: IRAK4 (Homo sapiens, UniProt Q9NWZ3)
Construct: endogenous in cells; host or cells: Karpas299
Sequence (Q9NWZ3 whole entry): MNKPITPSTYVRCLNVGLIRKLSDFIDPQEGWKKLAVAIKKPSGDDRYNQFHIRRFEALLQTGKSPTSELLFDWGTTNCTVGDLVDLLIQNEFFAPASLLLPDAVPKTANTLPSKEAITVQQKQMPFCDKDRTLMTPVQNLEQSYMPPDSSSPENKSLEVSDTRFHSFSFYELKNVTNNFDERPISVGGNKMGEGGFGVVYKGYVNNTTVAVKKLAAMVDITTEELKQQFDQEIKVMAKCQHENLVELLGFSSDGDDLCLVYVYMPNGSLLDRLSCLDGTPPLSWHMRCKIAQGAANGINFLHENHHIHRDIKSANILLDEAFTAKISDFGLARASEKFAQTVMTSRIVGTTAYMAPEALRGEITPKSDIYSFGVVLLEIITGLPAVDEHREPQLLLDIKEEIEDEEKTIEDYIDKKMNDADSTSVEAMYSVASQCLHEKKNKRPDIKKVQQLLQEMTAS
Experiment: IRAK4 Degradation Assay (Karpas299, HTRF/TR-FRET)
Format: cell-based
Conditions: Karpas-299 cells, 24 h treatment; maximum percentage of degradation; read-out: IRAK4 in Karpas-299 (24 h) Dmax (%)
recorded metric: Dmax (%)

CC(C)(O)c1cc2nn([C@H]3CC[C@H](N4CCN(C(=O)[C@@H]5CCN(c6cc(F)c(N7CCC(=O)NC7=O)c(F)c6)C5)CC4)CC3)cc2cc1NC(=O)c1cccc(C(F)(F)F)n1 [Example 115] : 96
CC(C)(O)c1cc2nc(C3CCN(C4CCN(C(=O)C5CN(c6cc(F)c([C@H]7CCC(=O)NC7=O)c(F)c6)C5)CC4)CC3)cn2cc1NC(=O)c1cccc(C(F)(F)F)n1 [Example 126] : 99
CC(C)(O)c1cc2nn([C@H]3CC[C@H](N4CCN(C5CCN(c6ccc7c(c6)C(=O)N(C6CCC(=O)NC6=O)C7=O)CC5)CC4)CC3)cc2cc1NC(=O)c1ccc2cc(C#N)cnn12 (stereo partly drawn) [Example 430] : 97

----------
Target: IRAK4 (Homo sapiens, UniProt Q9NWZ3)
Construct: endogenous in cells; host or cells: Karpas299
Test: IRAK4 Degradation Assay (Karpas299, HTRF/TR-FRET)
Type: cell-based
Details: Karpas-299 cells, 5 h treatment; read-out: IRAK4 in Karpas-299 (5 h) DC50
recorded metric: DC50 (nM)

O=C1CC[C@H](c2c(F)cc(N3CC[C@@H](C(=O)N4CCN([C@H]5CC[C@H](n6cc7cc(NC(=O)c8cccc(C(F)(F)F)n8)c(C(=O)N[C@H]8C[C@H](CO)C8)cc7n6)CC5)CC4)C3)cc2F)C(=O)N1 [Example 168] : 5.2
NC(=O)c1nn([C@H]2CC[C@H](N3CCN(C(=O)[C@@H]4CCN(c5cc(F)c([C@H]6CCC(=O)NC6=O)c(F)c5)C4)CC3)CC2)cc1NC(=O)c1coc(-c2ccnc(NCC(F)(F)F)c2)n1 [Example 12] : 5.4

----------
Target: IRAK4 (Homo sapiens)
Construct: endogenous in cells; host or cells: Karpas299
Test: IRAK4 Degradation Assay (Karpas299, HTRF/TR-FRET)
Type: cell-based
Conditions: Karpas-299 cells, 5 h treatment; read-out: IRAK4 in Karpas-299 (5 h) DC50
Procedure: IRAK4 degradation was measured using a TR-FRET-based method (Degorce, François, et al. Current chemical genomics. 2009, 3: 22). […] IRAK4 level was quantitated using the HTRF kit as described by the manufacturer manual (Cisbio). FRET signals were measured using a PHERAstar FSX reader (BMG Labtech). […] The inhibition (degradation) percentage of the compound was calculated by the following equation: […]
recorded metric: DC50 (nM)

Past entries and their recorded results:
Cc1cc(-c2nc(C(=O)Nc3cn(-c4ccc(N5CCN(C(=O)C6CN(c7ccc(N8CCC(=O)NC8=O)cc7)C6)CC5)nc4)nc3C(N)=O)co2)ccn1 : 8.2
CC(C)(O)c1cc2nn(C3CCN(C4CCN(C(=O)[C@@H]5CCN(c6cc(F)c([C@H]7CCC(=O)NC7=O)c(F)c6)C5)CC4)CC3)cc2cc1NC(=O)c1cccc(C(F)(F)F)n1 : 5
Cc1nc(C2CCC(=O)NC2=O)ccc1N1CCC(N2CCN([C@H]3CC[C@H](n4cc5cc(NC(=O)c6ccc7cc(C#N)cnn67)c(C(C)(C)O)cc5n4)CC3)CC2)CC1 (some centres unmarked) : 1.9

a. CC(C)(O)c1cc2nn([C@H]3CC[C@H](N4CCN(C(=O)[C@@H]5CCN(c6cc(F)c([C@H]7CCC(=O)NC7=O)c(F)c6)C5)CC4)CC3)cc2cc1NC(=O)c1ccc2cc(C#N)cnn12
b. CC(C)(O)c1cc2nn([C@H]3CC[C@H](N4CCN(C(=O)C5CN(c6cc(F)c(N7CCC(=O)NC7=O)c(F)c6)C5)CC4)CC3)cc2cc1NC(=O)c1ccc2cc(C#N)cnn12
Sorting ascending by DC50, which comes first: a or b ? Return value: the label identifying the chosen record. a
(a: 2 nM, b: 3.1 nM)

----------
Molecular target: IRAK4 (Homo sapiens, UniProt Q9NWZ3)
Construct: endogenous in cells; host or cells: Karpas299
Assay: IRAK4 Degradation Assay (Karpas299, HTRF/TR-FRET)
Format: cell-based
Conditions: Karpas-299 cells, 24 h treatment; read-out: IRAK4 in Karpas-299 (24 h) DC50
recorded metric: DC50 (nM)

O=C1CC[C@H](c2c(F)cc(N3CC(C(=O)N4CCN(c5ccc(-n6cc(NC(=O)c7coc(-c8ccnc(NCC9CC9)c8)n7)c(C(F)F)n6)cn5)CC4)C3)cc2F)C(=O)N1 [Example 90] : 3.1
CC(C)(O)c1cc2nn(C3CCN(C4CCN(C(=O)C5CN(c6cc(F)c([C@H]7CCC(=O)NC7=O)c(F)c6)C5)CC4)CC3)cc2cc1NC(=O)c1cccn(C2CC2)c1=O [Example 117] : 4.2
O=C1CCN(c2ccc(N3CCC(N4CCN([C@H]5CC[C@H](n6cc(NC(=O)c7coc(-c8ccnc(NCC(F)(F)F)c8)n7)c(C(F)F)n6)CC5)CC4)C3)cc2)C(=O)N1 (stereo partly drawn) [Example 21] : 4.4

----------
Target: IRAK4 (Homo sapiens)
Construct: endogenous in cells; host or cells: Karpas299
Test: IRAK4 Degradation Assay (Karpas299, HTRF/TR-FRET)
Assay type: cell-based
Conditions: Karpas-299 cells, 24 h treatment; maximum percentage of degradation; read-out: IRAK4 in Karpas-299 (24 h) Dmax (%)
recorded metric: Dmax (%)

A. O=C1CC[C@H](c2c(F)cc(N3CC(C(=O)N4CCN([C@H]5CC[C@H](n6cc(NC(=O)c7coc(-c8ccnc(NCC9CC9)c8)n7)c(C(F)F)n6)CC5)CC4)C3)cc2F)C(=O)N1 [Example 25]
B. CC(C)(O)c1cc2nn([C@H]3CC[C@H](N4CCN(CCc5cc(F)c([C@H]6CCC(=O)NC6=O)c(F)c5)CC4)CC3)cc2cc1NC(=O)c1ccn2cc(C#N)cnc12 [Example 413]
Lab note: record which item had the higher Dmax, A or B . Your choice should be expressed through its label. A

----------
Test system: TNF-α production in THP-1 cells
Assay: TNF-α Production Assay in THP-1 Cells (LPS stimulated)
Assay type: cell-based
Conditions: Homo sapiens, THP-1, 24 h
pIC50: −log10 of the molar value.
recorded metric: pIC50

Guide cases for pIC50, answers given:
CC(C)(O)c1cc2nn([C@H]3CC[C@H](N4CCN(C(=O)C5CN(c6cc(F)c([C@H]7CCC(=O)NC7=O)c(F)c6)C5)CC4)CC3)cc2cc1NC(=O)c1cccc(C(F)(F)F)n1 [Example 38] : 7.72
NC(=O)c1nn([C@H]2CC[C@H](N3CCN(C(=O)[C@@H]4CCN(c5cc(F)c([C@H]6CCC(=O)NC6=O)c(F)c5)C4)CC3)CC2)cc1NC(=O)c1coc(-c2ccnc(NCC(F)(F)F)c2)n1 [Example 12] : 7.60
COC[C@H]1CN([C@H]2CC[C@H](n3cc4cc(NC(=O)c5ccc6cc(C#N)cnn56)c(C(C)(C)O)cc4n3)CC2)CCN1CC1CN(c2cc(F)c([C@H]3CCC(=O)NC3=O)c(F)c2)C1 [Example 367] : 7.96
COc1cc2nn([C@H]3CC[C@H](CN4CCN(C(=O)[C@@H]5CCN(c6ccc(N7CCC(=O)NC7=O)cc6)C5)CC4)CC3)cc2cc1NC(=O)c1cccn(C2CC2)c1=O [Example 33] : 7.00
COc1cc2nn([C@H]3CC[C@H](N4CCN(C(=O)C5CN(c6ccc(N7CCC(=O)NC7=O)cc6)C5)CC4)CC3)cc2cc1NC(=O)c1cccc(C(F)(F)F)n1 [Example 37] : 7.47

1. COc1cc2nn([C@H]3CC[C@H](N4CCN(C(=O)C5CN(c6cc(F)c(N7CCC(=O)NC7=O)c(F)c6)C5)CC4)CC3)cc2cc1NC(=O)c1cccc(C(F)(F)F)n1 [Example 176]
2. COc1cc(N2CC(C(=O)N3CCN([C@H]4CC[C@H](n5cc6cc(NC(=O)c7ccc8cc(C#N)cnn78)c(C(C)(C)O)cc6n5)CC4)CC3)C2)ccc1N1CCC(=O)NC1=O [Example 269]
Just tell me: smaller pIC50 value, 1 or 2 ? Answer format: the label of the selected item. 1
(1: 6.92, 2: 7.62)

----------
Biological target: IRAK4 (Homo sapiens, UniProt Q9NWZ3)
Construct: endogenous in cells; host or cells: Karpas299
Assay: IRAK4 Degradation Assay (Karpas299, HTRF/TR-FRET)
Type: cell-based
Conditions: Karpas-299 cells, 24 h treatment; read-out: IRAK4 in Karpas-299 (24 h) DC50
recorded metric: DC50 (nM)

NC(=O)c1nn([C@H]2CC[C@H](N3CCN(C4CC(c5ccc(N[C@H]6CCC(=O)NC6=O)cc5)C4)CC3)CC2)cc1NC(=O)c1coc(-c2ccnc(NCC(F)(F)F)c2)n1 (stereo partly shown) : 5.4
COC[C@@H]1CN([C@H]2CC[C@H](n3cc4cc(NC(=O)c5ccc6cc(C#N)cnn56)c(C(C)(C)O)cc4n3)CC2)CCN1C1CCN(c2ccc(C3CCC(=O)NC3=O)nc2C)CC1 (stereo partly shown) : 1.8

A. CC(C)(O)c1cc2nn(C34CC(N5CCN(CC6CN(c7cc(F)c(N8CCC(=O)NC8=O)c(F)c7)C6)CC5)(C3)C4)cc2cc1NC(=O)c1ccc2cc(C#N)cnn12
B. COC[C@@H]1CN(CCc2cc(F)c([C@H]3CCC(=O)NC3=O)c(F)c2)CCN1[C@H]1CC[C@H](n2cc3cc(NC(=O)c4ccc5cc(C#N)cnn45)c(C(C)(C)O)cc3n2)CC1
Which is greater in DC50, the first item A or the second item B ? Give the chosen item's label as your response. A
